Run Description: 60 mg once daily for seven days, pharmacokinetics in humans (MAD)
Condition Set: human, plasma, oral, 60 mg
Endpoint Name: AUC0-inf (ng·h/mL)
Return type: number; implicit unit ng·h/mL.

Reported AUC0-inf for "C[C@@]1(O)CC[C@@]2(C)[C@@H](CC[C@@H]3[C@@H]2CC[C@]2(C)[C@@H](C(=O)Cn4cc(C#N)cn4)CC[C@@H]32)C1" was 2900

====

Run Description: Further pharmacokinetic analysis of Phase 1 human dosing exposure studies
Format: in vivo
Condition Set: plasma, oral, Phase 1, both after single and repeat administration, read-out: terminal half-life (converted)
Endpoint Name: half-life

Reported half-life for "C[C@@]1(O)CC[C@@]2(C)[C@@H](CC[C@@H]3[C@@H]2CC[C@]2(C)[C@@H](C(=O)Cn4cc(C#N)cn4)CC[C@@H]32)C1" was ~40 h
